System: HMVEC cells stimulated with VEGF 165
Test: VEGF driven HMVEC proliferation screen
Assay type: cell-based

- smiles-code: "COc1cc(NC(=O)c2ccccn2)c2ncccc2c1"
  CC50 (nM): 38
- smiles-code: "O=C(Nc1cccc2cccnc12)c1ncccc1O"
  CC50 (nM): 51
- smiles-code: "CCCOc1cccnc1C(=O)Nc1cccc2cccnc12"
  CC50 (nM): 180
- smiles-code: "CN(C)c1ccccc1NC(=O)c1ccccn1"
  CC50 (nM): 770
- smiles-code: "CN(C)c1c(NC(=O)c2ccccn2)ccc(Cl)c1Cl"
  CC50 (nM): 3500
- smiles-code: "Cc1ccc2cccc(NC(=O)c3ccccn3)c2n1"
  CC50 (nM): 3900
- smiles-code: "Cc1cc(NC(=O)c2ccccn2)c2ncccc2c1"
  CC50 (nM): 73
- smiles-code: "O=C(Nc1cccc2cccnc12)c1cccc(Br)n1"
  CC50 (nM): 86
- smiles-code: "O=C(Nc1cc(OCCN2CCOCC2)cc2cccnc12)c1ccccn1"
  CC50 (nM): 30
- smiles-code: "O=C(Nc1cc(C(F)(F)F)cc2cccnc12)c1ccccn1"
  CC50 (nM): 160
- smiles-code: "CC(C)N(C)c1ccccc1NC(=O)c1ccccn1"
  CC50 (nM): 9600
- smiles-code: "O=C(Nc1cccc2cc(Cl)cnc12)c1ccccn1"
  CC50 (nM): 310
- smiles-code: "CCN1CCN(c2ccnc(C(=O)Nc3cccc4cccnc34)c2)CC1"
  CC50 (nM): 17
- smiles-code: "CN1CCCN(c2ccnc(C(=O)Nc3cccc4cccnc34)c2)CC1"
  CC50 (nM): 26
- smiles-code: "COc1cc(NS(=O)(=O)c2ccccn2)c2ncccc2c1"
  CC50 (nM): 170
- smiles-code: "O=S(=O)(Nc1cc(Cl)c(Cl)c2cccnc12)c1ccccn1"
  CC50 (nM): 1100
- smiles-code: "O=C(Nc1cccc2cccnc12)c1cc(N2CCC(O)CC2)ccn1"
  CC50 (nM): 290
- smiles-code: "CCN(C)c1c(NC(=O)c2ccccn2)ccc(Cl)c1Cl"
  CC50 (nM): 8200
- smiles-code: "O=C(Nc1ccc(N2CCOCC2)c2cccnc12)c1ccccn1"
  CC50 (nM): 35
- smiles-code: "CCCN(C)c1ccccc1NC(=O)c1ccccn1"
  CC50 (nM): 2000
- smiles-code: "O=C(Nc1cccc2cccnc12)c1cc(N2CCOCC2)ccn1"
  CC50 (nM): 22
- smiles-code: "O=C(Nc1cc(N2CCOCC2)cc2cccnc12)c1ccccn1"
  CC50 (nM): 25
- smiles-code: "CCN(C)c1ccccc1NC(=O)c1ccccn1"
  CC50 (nM): 620
- smiles-code: "Cc1cc(NC(=O)c2ccccn2)c2ncccc2c1C"
  CC50 (nM): 160
- smiles-code: "O=C(Nc1cc(Cl)cc2cccnc12)c1ccccn1"
  CC50 (nM): 120
- smiles-code: "O=C(Nc1ccccc1N1CCCC1)c1ccccn1"
  CC50 (nM): 8000
- smiles-code: "O=C(Nc1cc(Cl)c(Cl)c2cccnc12)c1ccccn1"
  CC50 (nM): 210

These data points were gathered from patent US20070254894A1.
